Here, compounds appear alongside Ki reported for Muscarinic acetylcholine receptor M3 (Homo sapiens) in the literature.
Response field label takes Satisfied when Ki is strictly below 800 nM and Not satisfied in all other cases.

Some entries whose results are on file:
[[record]]
compound = "COc1ccccc1C(O)C1=CN2CCC1CC2 (stereo not given)"
class_label = "Not satisfied"

[[record]]
compound = "C[N+]1(CCCC(O)(c2ccccc2)c2ccccc2)CCN(c2ccccc2)CC1"
class_label = "Not satisfied"

[[record]]
compound = "Cc1c(NC2CC2)nc(C2CC2)nc1N1CCC(C)(C)CC1"
class_label = "Satisfied"


Let's switch to this compound now.
Query block: Identify whether the compound CS(=O)(=O)Nc1cc([C@@H](O)CNCCCCCCCCCN2CCC(OC(=O)Nc3ccccc3-c3ccccc3O)CC2)ccc1O records Ki below 800 nM.
Result block: Satisfied

* * *

pKi: −log10 of the molar value.
Here, molecules appear alongside pKi reported for Muscarinic acetylcholine receptor M3 (Homo sapiens, UniProt P20309) in the literature.
Record Condition met whenever pKi is at 7 or higher; record Condition not met when lower.

Query block: Would you say O=C(CCN1CCCc2ccccc21)Nc1cccc2ccccc12 shows pKi at minimum 7?
Result block: Condition not met

Query block: Can you check CCCCCCN1CCC(OC(=O)Nc2ccccc2-c2ccccc2)CC1 next?
Result block: Condition met

Query block: Quick one: O=C(CCN1CCCc2ccccc21)N1CCCC(O)C1 (configuration not stated)
Result block: Condition not met

Query block: Would you kindly repeat that for C1CCCN(c2nc(C3CC3)nc3c2CCCCN3)CC1 ?
Result block: Condition met

Query block: Param item: Cc1cc(OCCC(C)(C)O)cc(C)c1-c1ccc(F)c2c1CC[C@H]2Oc1ccc2c(c1)OC[C@H]2CC(=O)O
Result block: Condition not met

Query block: Record: CC1CCCC(C)N1C(=O)CCN1CCCc2ccccc21 (configuration not stated)
Result block: Condition not met

Query block: Now the same for c1ccc(-c2ccc(N3CCN(Cc4c[nH]c5ncccc45)CC3)cc2)cc1
Result block: Condition not met

Query block: Cool, now C[N+]1(C)CCC(C2CC[N+](C)(CCCC(O)(c3ccccc3)c3ccccc3)CC2)CC1 (configuration not stated)
Result block: Condition not met

Query block: Same read-out for Cc1c(NC2CC2)nc(C2CC2)nc1N(C)Cc1ccccc1 ?
Result block: Condition not met

Query block: Moving on to the next molecule: O=C1CCc2ccccc2N1CCCN1CCN(CCc2ccccc2)CC1
Result block: Condition not met

Query block: Subsequent entry: CCCC1CCN(CCCN2C(=O)CCc3ccccc32)CC1
Result block: Condition not met

Query block: Proceed to CCCCCCCN1CCC(OC(=O)Nc2ccccc2-c2ccccc2)CC1
Result block: Condition met

Query block: Try the molecule CCCC(C1=C(CCN(C)C)Cc2ccccc21)c1ccccn1 (configuration not stated)
Result block: Condition not met

Query block: Also check O=C(CCN1CCCc2ccccc21)NCc1cccs1
Result block: Condition not met

Query block: Next up: COc1nsc(OCCCOCCCOCCCOc2nsnc2C2=CCCN(C)C2)n1
Result block: Condition not met

Query block: Proceed to c1coc([C@H]2CCCN2)c1
Result block: Condition not met

Query block: // query: C[C@H]1CN(Cc2cccc(-c3cc(CNC(=O)c4cccc(CC5CCNCC5)c4)ccc3F)c2)CCN1
Result block: Condition met

Query block: Next up: CCCCCCCCCCCN1CCC(OC(=O)Nc2ccccc2-c2ccccc2)CC1
Result block: Condition met

Query block: Now consider C=C(c1ccc(S(=O)(=O)c2ccc(OC)cc2)cc1)C1CCN(C2CCNCC2)CC1 .
Result block: Condition met
